target.or.system: cyclooxygenase-2 (COX-2) (Homo sapiens)
Construct: human osteosarcoma 143 cells (which specifically express cyclooxygenase-2); endogenous in cells; host or cells: human osteosarcoma 143 cells (whole cells, and microsomes prepared from them)
experimental.protocol: Whole cell cyclooxygenase assay, COX-2 (PGE2 synthesis in response to arachidonic acid, radioimmunoassay), human osteosarcoma 143 cells
Assay type: cell-based
recorded.conditions: 160 nM; read-out: Whole Cells COX-2 % inhib.
Please provide measured inhibition at 0.16 µM for the entries that follow.
Numbers only, in %.

Worked cases, inhibition at 0.16 µM given:
                                   compound      quantity_measured  value_measured
0  CS(=O)(=O)c1ccc(C2=C(c3ccc(Cl)c(F)c3)C(=O)OC2)cc1 [Example 46]  inhibition at 0.16 µM              97
1  CS(=O)(=O)c1ccc(C2=C(c3ccc(F)c(Br)c3)C(=O)OC2)cc1 [Example 28]  inhibition at 0.16 µM              69

Can you give me inhibition at 0.16 µM for all of these, one by one?
1. CS(=O)(=O)c1ccc(C2=C(c3ccc(F)cc3Br)C(=O)OC2)cc1 [Example 25]
2. COc1ccc(C2=C(c3ccc(S(C)(=O)=O)cc3)COC2=O)cc1Cl [Example 37]
3. CS(=O)(=O)c1ccc(C2=C(c3ccc(Cl)cc3Br)C(=O)OC2)cc1 [Example 26]

1. 40
2. 93
3. 39

====

target.or.system: cyclooxygenase-2 (COX-2) (Homo sapiens, UniProt P35354)
Construct: human osteosarcoma 143 cells (which specifically express cyclooxygenase-2); endogenous in cells; host or cells: human osteosarcoma 143 cells (whole cells, and microsomes prepared from them)
experimental.protocol: Whole cell cyclooxygenase assay, COX-2 (PGE2 synthesis in response to arachidonic acid, radioimmunoassay), human osteosarcoma 143 cells
Format: cell-based
recorded.conditions: 20 nM; read-out: Whole Cells COX-2 % inhib.
Please provide measured inhibition at 0.02 µM for the entries that follow.
One number for each entry, in %.

Worked cases, inhibition at 0.02 µM given:
>>> df
                                   compound      quantity_measured  value_measured
0  CS(=O)(=O)c1ccc(C2=C(c3ccc(F)cc3F)C(=O)OC2)cc1 [Example 15]  inhibition at 0.02 µM              39
1  COc1ccc(C2=C(c3ccc(S(C)(=O)=O)cc3)COC2=O)cc1 [Example 22]  inhibition at 0.02 µM              39
2  CS(=O)(=O)c1ccc(C2=C(c3ccc(Cl)cc3F)C(=O)OC2)cc1 [Example 27]  inhibition at 0.02 µM              38
3  NS(=O)(=O)c1ccc(C2=C(c3ccc(Cl)c(Cl)c3)C(=O)OC2)cc1 [Example 51]  inhibition at 0.02 µM              95
4  CS(=O)(=O)c1ccc(C2=C(c3ccc(C(F)(F)F)cc3)C(=O)OC2)cc1 [Example 35]  inhibition at 0.02 µM              32
5  CS(=O)(=O)c1ccc(C2=C(c3c(F)cccc3Cl)C(=O)OC2)cc1 [Example 42]  inhibition at 0.02 µM              10
6  CS(=O)(=O)c1ccc(C2=C(c3cccc(Cl)c3)C(=O)OC2)cc1 [Example 29]  inhibition at 0.02 µM              78
7  CS(=O)(=O)c1ccc(C2=C(c3ccc(Cl)cc3Cl)C(=O)OC2)cc1 [Example 31]  inhibition at 0.02 µM              49
8  CS(=O)(=O)c1ccc(C2=C(c3ccc(F)c(Br)c3)C(=O)OC2)cc1 [Example 28]  inhibition at 0.02 µM              48
9  CS(=O)(=O)c1ccc(C2=C(c3ccc(Br)cc3F)C(=O)OC2)cc1 [Example 44]  inhibition at 0.02 µM              14

Shifting focus to the compound that follows.
For the compound CS(=O)(=O)c1ccc(C2=C(c3ccc(F)c(F)c3)C(=O)OC2)cc1 [Example 16] , give its measured inhibition at 0.02 µM value. 41

====

Please provide measured inhibition at 0.1 µM for the entries that follow.
target.or.system: cyclooxygenase-2 (COX-2) (Homo sapiens, UniProt P35354)
Construct: human osteosarcoma 143 cells (which specifically express cyclooxygenase-2); endogenous in cells; host or cells: human osteosarcoma 143 cells (whole cells, and microsomes prepared from them)
experimental.protocol: Whole cell cyclooxygenase assay, COX-2 (PGE2 synthesis in response to arachidonic acid, radioimmunoassay), human osteosarcoma 143 cells
Format: cell-based
recorded.conditions: 100 nM; read-out: Whole Cells COX-2 % inhib.
Don't forget the unit after the value.

Worked cases, inhibition at 0.1 µM given:
>>> df
                                        smi     quantity_measured  value_measured
0  CC(C)(O)c1cc(-c2ccc(S(N)(=O)=O)cc2)c(-c2ccc(F)cc2)s1  inhibition at 0.1 µM             96%
1  Cc1nc(-c2ccc(F)cc2)c(-c2ccc(S(C)(=O)=O)cc2)s1  inhibition at 0.1 µM             78%
2  NS(=O)(=O)c1ccc(C2=C(c3ccc(F)cc3)C(=O)OC2)cc1  inhibition at 0.1 µM             95%
3  CS(=O)(=O)c1ccc(-c2cnsc2-c2ccc(F)cc2)cc1  inhibition at 0.1 µM             89%
4  O=C(NS(=O)(=O)c1ccc(-c2ccsc2-c2ccc(F)cc2)cc1)C(F)(F)F  inhibition at 0.1 µM             89%
5  CS(=O)(=O)c1ccc(C2=C(c3ccc(F)cc3)C(=O)CC2)cc1  inhibition at 0.1 µM             74%

Can you give me inhibition at 0.1 µM for all of these, one by one?
1. CC(C)c1cc(-c2ccc(S(N)(=O)=O)cc2)c(-c2ccc(F)cc2)s1
2. CS(=O)(=O)c1ccc(-c2cocc2-c2ccc(F)cc2)cc1
3. NS(=O)(=O)c1ccc(-c2sccc2-c2ccc(F)cc2)cc1

1. 100%
2. 39%
3. 84%

For the compound `CC1(C)OC(=O)C(c2ccc(F)cc2)=C1c1ccc(S(C)(=O)=O)cc1` , give its measured inhibition at 0.1 µM value. 54%

====

Please provide measured inhibition at 0.04 µM for the entries that follow.
target.or.system: cyclooxygenase-2 (COX-2) (Homo sapiens)
Construct: human osteosarcoma 143 cells (which specifically express cyclooxygenase-2); endogenous in cells; host or cells: human osteosarcoma 143 cells (whole cells, and microsomes prepared from them)
experimental.protocol: Whole cell cyclooxygenase assay, COX-2 (PGE2 synthesis in response to arachidonic acid, radioimmunoassay), human osteosarcoma 143 cells
Assay type: cell-based
recorded.conditions: 40 nM; read-out: Whole Cells COX-2 % inhib.
Give bare numbers, in %.

Worked cases, inhibition at 0.04 µM given:
In [3]: df
Out[3]:
                                        smi  value_measured
0  CS(=O)(=O)c1ccc(C2=C(c3ccc(Br)c(Br)c3)C(=O)OC2)cc1              61
1  CSc1ccc(C2=C(c3ccc(S(C)(=O)=O)cc3)COC2=O)cc1              72
2  NS(=O)(=O)c1ccc(C2=C(c3ccc(F)c(F)c3)C(=O)OC2)cc1              82
3  CS(=O)(=O)c1ccc(C2=C(c3ccc(C(F)(F)F)cc3)C(=O)OC2)cc1              57

Shifting focus to the molecule that follows.
For the molecule `COc1ccc(C2=C(c3ccc(S(N)(=O)=O)cc3)COC2=O)cc1Cl` , give its measured inhibition at 0.04 µM value. 96

====

Please provide measured inhibition at 0.1 µM for the entries that follow.
target.or.system: cyclooxygenase-2 (COX-2) (Homo sapiens)
Construct: human osteosarcoma 143 cells (which specifically express cyclooxygenase-2); endogenous in cells; host or cells: human osteosarcoma 143 cells (whole cells, and microsomes prepared from them)
Sequence (P35354 18-604): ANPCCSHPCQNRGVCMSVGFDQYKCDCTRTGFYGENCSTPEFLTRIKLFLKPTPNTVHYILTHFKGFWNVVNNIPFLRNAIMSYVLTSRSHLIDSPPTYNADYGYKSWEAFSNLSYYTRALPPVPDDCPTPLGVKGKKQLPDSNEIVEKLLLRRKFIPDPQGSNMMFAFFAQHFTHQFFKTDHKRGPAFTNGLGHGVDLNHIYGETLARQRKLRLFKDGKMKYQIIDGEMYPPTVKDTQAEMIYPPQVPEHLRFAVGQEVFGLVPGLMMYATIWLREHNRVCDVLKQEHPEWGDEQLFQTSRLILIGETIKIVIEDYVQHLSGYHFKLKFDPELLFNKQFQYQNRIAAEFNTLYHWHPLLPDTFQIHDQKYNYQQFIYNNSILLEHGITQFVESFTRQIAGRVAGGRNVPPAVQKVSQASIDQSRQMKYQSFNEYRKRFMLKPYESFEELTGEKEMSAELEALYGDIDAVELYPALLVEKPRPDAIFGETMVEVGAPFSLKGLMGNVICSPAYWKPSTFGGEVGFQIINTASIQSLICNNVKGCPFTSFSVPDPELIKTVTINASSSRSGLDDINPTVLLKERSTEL
experimental.protocol: Microsomal cyclooxygenase assay, COX-2 (PGE2 synthesis, microsomes of human osteosarcoma 143 cells)
Assay type: biochemical
recorded.conditions: 100 nM; read-out: Microsomes COX-2 % inhib.
Numbers only, in %.

                                   molecule     quantity_measured  value_measured
0  CC(C)(O)c1cc(-c2ccc(S(N)(=O)=O)cc2)c(-c2ccc(F)cc2)s1 [Example 1]  inhibition at 0.1 µM              53

Can you give me inhibition at 0.1 µM for all of these, one by one?
1. CS(=O)(=O)c1ccc(C2=C(c3ccc(F)cc3)C(=O)OC2)cc1 [Example 9]
2. CS(=O)(=O)c1ccc(-c2cocc2-c2ccc(F)cc2)cc1 [Example 11]
3. CC(C)c1cc(-c2ccc(S(N)(=O)=O)cc2)c(-c2ccc(F)cc2)s1 [Example 3]
4. Cc1nc(-c2ccc(F)cc2)c(-c2ccc(S(C)(=O)=O)cc2)s1 [Example 6]
5. O=C(NS(=O)(=O)c1ccc(-c2ccsc2-c2ccc(F)cc2)cc1)C(F)(F)F [Example 14]
6. NS(=O)(=O)c1ccc(C2=C(c3ccc(F)cc3)C(=O)OC2)cc1 [Example 10]

1. 37
2. 46
3. 76
4. 19
5. 63
6. 71
